experimental-target: KRAS G12C and cRAF (Ras-binding domain) interaction (Homo sapiens (Human), UniProt P01116, C118S/C51S/C80L/G12C)
Sequence (P01116 other isoform, or with tags, fused parts or gaps G12C/C51S/C80L/C118S): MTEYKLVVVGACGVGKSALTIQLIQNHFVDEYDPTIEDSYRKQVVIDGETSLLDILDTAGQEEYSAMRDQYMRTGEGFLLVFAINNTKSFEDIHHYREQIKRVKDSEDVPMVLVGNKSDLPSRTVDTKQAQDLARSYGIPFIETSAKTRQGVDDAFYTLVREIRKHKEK
assay-remarks: Inhibition of KRAS G12C and cRAF binding (AlphaScreen)
stated-conditions: GMPPNP-loaded KRAS G12C, 19-20 hours incubation with compound; read-out: IC50 (Inhibition of KRAS G12C and cRAF Binding)
measured-parameter: IC50

Sample records with IC50:
{"molecule": "CN(CC1CN(C(=O)/C=C/[C@H]2CCN2C)C1)c1nc(OC[C@@]23CCCN2C[C@H](F)C3)nc2c(F)c(-c3cccc4cccc(Cl)c34)ncc12", "IC50": "10 to 100 nM"}
{"molecule": "COC(=O)/C=C/C(=O)N1C[C@@H](N(C)c2nc(OC[C@@H]3CCCN3C)nc3c2CCN(c2cccc4cccc(Cl)c24)C3)C[C@@H]1C", "IC50": "> 500 nM"}
{"molecule": "CN1CCC[C@H]1COc1nc2c(c(N3CCC(CNC#N)CC3)n1)CCN(c1cccc3cccc(Cl)c13)C2", "IC50": "> 500 nM"}
{"molecule": "C=CC(=O)N1CC[C@@H](N(C)c2nc(OC[C@@]34CCCN3C[C@H](F)C4)nc3c(F)c(-c4cccc5cccc(C(F)F)c45)ncc23)C1", "IC50": "> 500 nM"}
{"molecule": "CN(c1nc(OC[C@@]23CCCN2C[C@H](F)C3)nc2c(F)c(-c3cccc4ccc(F)c(Cl)c34)ncc12)[C@@H]1CCN(C(=O)/C=C/C2CCN2)C1 (stereo partly drawn)", "IC50": "10 to 100 nM"}

Then there is this molecule:
Record CN(c1nc(OCC23CCCN2CCC3)nc2c(F)c(-c3cccc4cccc(Cl)c34)ncc12)[C@@H]1CCN(C(=O)/C=C/c2cn(C)cn2)C1 , field IC50: > 500 nM

====

experimental-target: KRAS G12C and cRAF (Ras-binding domain) interaction (Homo sapiens (Human), UniProt P01116, C118S/C51S/C80L/G12C)
assay-remarks: Inhibition of KRAS G12C and cRAF binding (AlphaScreen)
stated-conditions: GMPPNP-loaded KRAS G12C, 19-20 hours incubation with compound; read-out: IC50 (Inhibition of KRAS G12C and cRAF Binding)
Recorded IC50 values for a group of compounds are listed next.

Sample records with IC50:
{"compound": "C=CC(=O)N1CC[C@@H](N(C)c2nc(OC[C@]34CCCN3C[C@H](F)C4)nc3c(F)c(-c4cccc5ccc(F)c(Cl)c45)ncc23)C1 [Example 81]", "result": "10 to 100 nM"}
{"compound": "COC(=O)/C=C/C(=O)NCCN(C)c1nc(OCC23CCCN2CCC3)nc2c1CCN(c1cccc3cccc(Cl)c13)C2 [Example 13]", "result": "10 to 100 nM"}
{"compound": "CN(c1nc(OC[C@@]23CCCN2C[C@H](F)C3)nc2c(F)c(-c3cccc4ccc(F)c(Cl)c34)ncc12)[C@@H]1CCN(C(=O)/C=C/[C@H]2CCN2CC2COC2)C1 [Example 213]", "result": "10 to 100 nM"}

Record CN1CC(=CC(=O)N2CC[C@@H](N(C)c3nc(OC[C@@]45CCCN4C[C@H](F)C5)nc4c(F)c(-c5cccc6ccc(F)c(Cl)c56)ncc34)C2)C1 [Example 300] , field IC50: 10 to 100 nM

Record Cc1cc(/C=C/C(=O)N2CC[C@@H](N(C)c3nc(OC[C@@]45CCCN4C[C@H](F)C5)nc4c(F)c(-c5cccc6cccc(Cl)c56)ncc34)C2)nc(C)n1 [Example 204] , field IC50: 100 to 500 nM

Record C[C@H](F)c1noc(/C=C/C(=O)N2CC[C@@H](N(C)c3nc(OC[C@@]45CCCN4C[C@H](F)C5)nc4c(F)c(-c5cccc6cccc(Cl)c56)ncc34)C2)n1 [Example 77] , field IC50: < 10 nM

Record C=CC(=O)N1CC[C@@H](Nc2nc(OC[C@@]34CCCN3C[C@H](F)C4)nc3c(F)c(-c4cccc5cccc(Cl)c45)ncc23)[C@H]1C [Example 190] , field IC50: 100 to 500 nM

Record CN(CC1CN(C(=O)/C=C/c2nc(C3CC3)no2)C1)c1nc(OCC23CCCN2CCC3)nc2c1CCN(c1cccc3cccc(Cl)c13)C2 [Example 172] , field IC50: 10 to 100 nM

====

experimental-target: KRAS G12C and cRAF (Ras-binding domain) interaction (Homo sapiens (Human), UniProt P01116, C118S/C51S/C80L/G12C)
assay-remarks: Inhibition of KRAS G12C and cRAF binding (AlphaScreen)
stated-conditions: GMPPNP-loaded KRAS G12C, 19-20 hours incubation with compound; read-out: IC50 (Inhibition of KRAS G12C and cRAF Binding)
pIC50: −log10 of the molar value.
measured-parameter: pIC50

Sample records with pIC50:
{"molecule": "Cc1noc(/C=C/C(=O)N2CC(CN(C)c3nc(OC[C@@]45CCCN4C[C@H](F)C5)nc4c(F)c(-c5cc(O)cc6ccccc56)ncc34)C2)n1", "pIC50": "> 8.00"}
{"molecule": "CN(c1nc(OC[C@@H]2CCCN2C)nc2c1CCN(c1cccc3cccc(Cl)c13)C2)C1CCN(C#N)C1 (stereo partly drawn)", "pIC50": "6.30 to 7.00"}
{"molecule": "CN(c1nc(OC[C@@]23CCCN2C[C@H](F)C3)nc2c(F)c(-c3cccc4cccc(Cl)c34)ncc12)[C@@H]1CCN(C(=O)/C=C/c2nc(C3CCC3)no2)C1", "pIC50": "7.00 to 8.00"}

Record CN(c1nc(OCC23CCCN2CCC3)nc2c(F)c(-c3cccc4ccc(F)c(Cl)c34)ncc12)[C@@H]1CCN(C(=O)/C=C/c2nc(C(C)(C)O)no2)C1 , field pIC50: 7.00 to 8.00

Record CN(CC1CN(C#N)C1)c1nc(OCC23CCCN2CCC3)nc2c(F)c(-c3cccc4cccc(Cl)c34)ncc12 , field pIC50: 7.00 to 8.00

Record C#Cc1c(F)ccc2cccc(-c3ncc4c(N(C)CC5CN(C(=O)/C=C/c6cc(C)nc(C)n6)C5)nc(OC[C@@]56CCCN5C[C@H](F)C6)nc4c3F)c12 , field pIC50: 7.00 to 8.00

====

experimental-target: KRAS G12C and cRAF (Ras-binding domain) interaction (Homo sapiens (Human), UniProt P01116, C118S/C51S/C80L/G12C)
assay-remarks: Inhibition of KRAS G12C and cRAF binding (AlphaScreen)
stated-conditions: GMPPNP-loaded KRAS G12C, 19-20 hours incubation with compound; read-out: IC50 (Inhibition of KRAS G12C and cRAF Binding)
pIC50: −log10 of the molar value.
measured-parameter: pIC50

{"molecule": "C=CC(=O)N1CC(CN(C)c2nc(OC[C@@]34CCCN3C[C@H](F)C4)nc3c(F)c(-c4cc(O)cc5cccc(Cl)c45)ncc23)C1", "result": "> 8.00"}
{"molecule": "CN1CCC[C@H]1COc1nc2c(c(N(C)[C@@H]3CCN(C(=O)/C=C/S(C)(=O)=O)C3)n1)CCN(c1cccc3cccc(Cl)c13)C2", "result": "> 8.00"}
{"molecule": "CN1CCC[C@H]1COc1nc2c(c(N3CC[C@@H]4CN(C#N)C[C@@H]43)n1)CCN(c1cccc3cccc(Cl)c13)C2", "result": "6.30 to 7.00"}

Record C#Cc1c(F)ccc2cccc(-c3ncc4c(N(C)[C@@H]5CCN(C(=O)C=C)C5)nc(OCC56CCCN5CCC6)nc4c3F)c12 , field pIC50: > 8.00

Record C/C=C/S(=O)(=O)CCN(C)c1nc(OCC23CCCN2CCC3)nc2c1CCN(c1cccc3cccc(Cl)c13)C2 , field pIC50: 6.30 to 7.00

Record C=CC(=O)N1CC[C@@H](N(C)c2nc(OCC34CCCN3CCC4)nc3c2CCN(c2cccc4cccc(Cl)c24)C3)C1 , field pIC50: 7.00 to 8.00

====

experimental-target: KRAS G12C and cRAF (Ras-binding domain) interaction (Homo sapiens (Human), UniProt P01116, C118S/C51S/C80L/G12C)
assay-remarks: Inhibition of KRAS G12C and cRAF binding (AlphaScreen)
stated-conditions: GMPPNP-loaded KRAS G12C, 19-20 hours incubation with compound; read-out: IC50 (Inhibition of KRAS G12C and cRAF Binding)
pIC50: −log10 of the molar value.
Recorded pIC50 values for a group of molecules are listed next.

Sample records with pIC50:
{"molecule": "CN(c1nc(OC[C@@]23CCCN2C[C@H](F)C3)nc2c(F)c(-c3cccc4ccc(F)c(Cl)c34)ncc12)[C@@H]1CCN(C(=O)/C=C/c2nc(C(C)(C)O)no2)C1 [Example 88]", "pIC50": "> 8.00"}
{"molecule": "CN(c1nc(OC[C@@]23CCCN2C[C@H](F)C3)nc2c(F)c(-c3cccc4cccc(Cl)c34)ncc12)[C@@H]1CCN(C(=O)/C=C/[C@H]2CCN2CCO)C1 [Example 233]", "pIC50": "7.00 to 8.00"}
{"molecule": "Cc1ncc(F)c(/C=C/C(=O)N2CC[C@@H](N(C)c3nc(OCC45CCCN4CCC5)nc4c(F)c(-c5cccc6cccc(Cl)c56)ncc34)C2)n1 [Example 249]", "pIC50": "7.00 to 8.00"}
{"molecule": "CN(CC1CN(C(=O)/C=C/c2nc(C(C)(C)O)no2)C1)c1nc(OC[C@@]23CCCN2C[C@H](F)C3)nc2c(F)c(-c3cccc4cccc(Cl)c34)ncc12 [Example 105]", "pIC50": "> 8.00"}

Record C=CC(=O)N1CC[C@@H](N(C)c2nc(OC[C@@]34CCCN3C[C@H](F)C4)nc3c(F)c(-c4cccc5cccc(C#N)c45)ncc23)C1 [Example 297] , field pIC50: 6.30 to 7.00

Record COCCN(C)C/C=C/C(=O)N1CC[C@@H](N(C)c2nc(OC[C@@]34CCCN3C[C@H](F)C4)nc3c(F)c(-c4cccc5cccc(Cl)c45)ncc23)C1 [Example 235] , field pIC50: > 8.00
